Molecular target: human Izumo1_(22-254), wild type (human, UniProt Q8IYV9-1 22-254)
Sequence (Q8IYV9 22-254): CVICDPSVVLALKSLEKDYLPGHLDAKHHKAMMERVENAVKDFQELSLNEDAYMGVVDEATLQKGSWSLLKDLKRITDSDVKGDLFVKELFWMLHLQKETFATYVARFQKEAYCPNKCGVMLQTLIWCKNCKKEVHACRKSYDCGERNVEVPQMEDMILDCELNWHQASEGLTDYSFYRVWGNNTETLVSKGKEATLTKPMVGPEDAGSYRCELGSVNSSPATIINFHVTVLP
Experiment: BLI
kon values by entry
Report the figure in M⁻¹ s⁻¹ without appending any unit label.

// worked examples, kon included
human Juno_(20-228), wild type (domain or fragment, UniProt A6ND01-1 20-228, looked up, biotinylated with the EZ link sulfo-NHS-LC-biotinylation kit (in the BLI assay only)) GDELLNICMNAKHHKRVPSPEDKLYEECIPWKDNACCTLTTSWEAHLDVSPLYNFSLFHCGLLMPGCRKHFIQAICFYECSPNLGPWIQPVGSLGWEVAPSGQGERVVNVPLCQEDCEEWWEDCRMSYTCKSNWRGGWDWSQGKNRCPKGAQCLPFSHYFPTPADLCEKTWSNSFKASPERRNSGRCLQKWFEPAQGNPNVAVARLFAS: 115000
E45A Juno_(20-228) (domain or fragment, human, UniProt A6ND01-1 20-228, looked up, biotinylated with the EZ link sulfo-NHS-LC-biotinylation kit (BLI)) GDELLNICMNAKHHKRVPSPEDKLYAECIPWKDNACCTLTTSWEAHLDVSPLYNFSLFHCGLLMPGCRKHFIQAICFYECSPNLGPWIQPVGSLGWEVAPSGQGERVVNVPLCQEDCEEWWEDCRMSYTCKSNWRGGWDWSQGKNRCPKGAQCLPFSHYFPTPADLCEKTWSNSFKASPERRNSGRCLQKWFEPAQGNPNVAVARLFAS: 37000
K163E Juno_(20-228) (domain or fragment, human, UniProt A6ND01-1 20-228, looked up, biotinylated with the EZ link sulfo-NHS-LC-biotinylation kit (in the BLI assay only)) GDELLNICMNAKHHKRVPSPEDKLYEECIPWKDNACCTLTTSWEAHLDVSPLYNFSLFHCGLLMPGCRKHFIQAICFYECSPNLGPWIQPVGSLGWEVAPSGQGERVVNVPLCQEDCEEWWEDCRMSYTCKSNWRGGWDWSQGENRCPKGAQCLPFSHYFPTPADLCEKTWSNSFKASPERRNSGRCLQKWFEPAQGNPNVAVARLFAS: 181000

Next, consider the following binder.
Data point: L81A Juno_(20-228) (domain or fragment, human, UniProt A6ND01-1 20-228, looked up, biotinylated with the EZ link sulfo-NHS-LC-biotinylation kit (BLI)) GDELLNICMNAKHHKRVPSPEDKLYEECIPWKDNACCTLTTSWEAHLDVSPLYNFSLFHCGALMPGCRKHFIQAICFYECSPNLGPWIQPVGSLGWEVAPSGQGERVVNVPLCQEDCEEWWEDCRMSYTCKSNWRGGWDWSQGKNRCPKGAQCLPFSHYFPTPADLCEKTWSNSFKASPERRNSGRCLQKWFEPAQGNPNVAVARLFAS ; kon = 40000
